Source: patent US20250243171A1

Reported EC50 values follow for various compounds
# test-system: Ba/F3 stable cells (Homo sapiens, UniProt P00533, DUP768-770, cells depend on it)
# Construct: EC50 Ba/F3-EGFR D770-N771insSVD; other: Ba/F3-EGFR D770-N771insSVD cells, 72 h, CCK-8
# Sequence (P00533 with tags, fused parts or gaps DUP768-770): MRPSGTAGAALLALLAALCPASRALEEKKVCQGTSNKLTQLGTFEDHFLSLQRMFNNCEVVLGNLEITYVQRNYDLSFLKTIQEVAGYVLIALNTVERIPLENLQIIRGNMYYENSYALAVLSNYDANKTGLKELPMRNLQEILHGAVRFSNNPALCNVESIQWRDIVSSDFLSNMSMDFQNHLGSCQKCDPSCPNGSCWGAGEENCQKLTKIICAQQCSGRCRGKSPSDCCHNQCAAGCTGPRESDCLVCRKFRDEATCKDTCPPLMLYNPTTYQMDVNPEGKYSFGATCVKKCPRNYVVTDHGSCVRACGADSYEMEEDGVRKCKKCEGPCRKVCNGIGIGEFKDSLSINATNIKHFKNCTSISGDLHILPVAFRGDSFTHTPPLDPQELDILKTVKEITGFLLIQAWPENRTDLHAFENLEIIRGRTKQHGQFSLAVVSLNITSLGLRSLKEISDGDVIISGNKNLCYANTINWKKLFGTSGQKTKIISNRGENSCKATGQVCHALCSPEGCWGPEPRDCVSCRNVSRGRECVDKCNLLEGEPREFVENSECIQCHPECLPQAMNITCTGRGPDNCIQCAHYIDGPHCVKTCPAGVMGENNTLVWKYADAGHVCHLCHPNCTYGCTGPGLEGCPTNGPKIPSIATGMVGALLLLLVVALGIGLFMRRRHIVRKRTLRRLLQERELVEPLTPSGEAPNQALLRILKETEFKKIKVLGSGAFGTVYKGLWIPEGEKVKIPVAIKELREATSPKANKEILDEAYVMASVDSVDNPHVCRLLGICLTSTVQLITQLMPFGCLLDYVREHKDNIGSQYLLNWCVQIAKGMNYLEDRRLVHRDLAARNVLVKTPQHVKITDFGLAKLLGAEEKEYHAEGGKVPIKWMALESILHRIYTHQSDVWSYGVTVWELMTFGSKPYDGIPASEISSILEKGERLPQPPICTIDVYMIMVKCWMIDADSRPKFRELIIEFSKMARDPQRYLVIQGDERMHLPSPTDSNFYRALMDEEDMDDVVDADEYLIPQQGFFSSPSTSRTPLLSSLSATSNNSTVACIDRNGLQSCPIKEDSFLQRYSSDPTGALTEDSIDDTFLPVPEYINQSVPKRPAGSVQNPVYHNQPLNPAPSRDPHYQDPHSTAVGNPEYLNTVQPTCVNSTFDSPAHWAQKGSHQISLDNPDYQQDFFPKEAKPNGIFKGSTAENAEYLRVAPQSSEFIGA
# measurement-protocol: EC50 assay: Ba/F3 stable cell proliferation (CCK-8, 72 h)
# stated-conditions: Ba/F3-EGFR D770-N771insSVD cells
measured-parameter: EC50

INSERT INTO results (test_smiles, test_system, observed_result) VALUES
  ('C=CC(=O)N[C@H]1C[C@@H](Oc2cc3c(Nc4ccc(Cl)c(Cl)c4F)ncnc3cc2OC)C1', 'Ba/F3 stable cells (Homo sapiens, UniProt P00533, DUP768-770, cells depend on it)', '200 to 1000 nM'),
  ('C=CC(=O)N1CCC(Oc2cc3c(NCc4cc(Cl)ccc4F)ncnc3cc2OC)CC1', 'Ba/F3 stable cells (Homo sapiens, UniProt P00533, DUP768-770, cells depend on it)', '> 1000 nM'),
  ('C=CC(=O)N1CC(c2cc3c(Nc4ccc(OCc5ccccc5)c(Cl)c4F)ncnc3cc2OC)C1', 'Ba/F3 stable cells (Homo sapiens, UniProt P00533, DUP768-770, cells depend on it)', '> 1000 nM'),
  ('C#CC(=O)N1CCC(Oc2c(OC)cc3ncnc4c3c2NC(=O)N4c2ccc(Cl)c(Cl)c2)CC1', 'Ba/F3 stable cells (Homo sapiens, UniProt P00533, DUP768-770, cells depend on it)', '200 to 1000 nM');

----------
Listed here are molecules together with their documented pEC50.
# test-system: Ba/F3 stable cells (Homo sapiens, UniProt P00533, T790M/L858R, cells depend on it)
# Construct: EC50 Ba/F3-EGFR L858R-T790M; other: Ba/F3-EGFR L858R-T790M cells, 72 h, CCK-8
# Sequence (P00533 whole entry T790M/L858R): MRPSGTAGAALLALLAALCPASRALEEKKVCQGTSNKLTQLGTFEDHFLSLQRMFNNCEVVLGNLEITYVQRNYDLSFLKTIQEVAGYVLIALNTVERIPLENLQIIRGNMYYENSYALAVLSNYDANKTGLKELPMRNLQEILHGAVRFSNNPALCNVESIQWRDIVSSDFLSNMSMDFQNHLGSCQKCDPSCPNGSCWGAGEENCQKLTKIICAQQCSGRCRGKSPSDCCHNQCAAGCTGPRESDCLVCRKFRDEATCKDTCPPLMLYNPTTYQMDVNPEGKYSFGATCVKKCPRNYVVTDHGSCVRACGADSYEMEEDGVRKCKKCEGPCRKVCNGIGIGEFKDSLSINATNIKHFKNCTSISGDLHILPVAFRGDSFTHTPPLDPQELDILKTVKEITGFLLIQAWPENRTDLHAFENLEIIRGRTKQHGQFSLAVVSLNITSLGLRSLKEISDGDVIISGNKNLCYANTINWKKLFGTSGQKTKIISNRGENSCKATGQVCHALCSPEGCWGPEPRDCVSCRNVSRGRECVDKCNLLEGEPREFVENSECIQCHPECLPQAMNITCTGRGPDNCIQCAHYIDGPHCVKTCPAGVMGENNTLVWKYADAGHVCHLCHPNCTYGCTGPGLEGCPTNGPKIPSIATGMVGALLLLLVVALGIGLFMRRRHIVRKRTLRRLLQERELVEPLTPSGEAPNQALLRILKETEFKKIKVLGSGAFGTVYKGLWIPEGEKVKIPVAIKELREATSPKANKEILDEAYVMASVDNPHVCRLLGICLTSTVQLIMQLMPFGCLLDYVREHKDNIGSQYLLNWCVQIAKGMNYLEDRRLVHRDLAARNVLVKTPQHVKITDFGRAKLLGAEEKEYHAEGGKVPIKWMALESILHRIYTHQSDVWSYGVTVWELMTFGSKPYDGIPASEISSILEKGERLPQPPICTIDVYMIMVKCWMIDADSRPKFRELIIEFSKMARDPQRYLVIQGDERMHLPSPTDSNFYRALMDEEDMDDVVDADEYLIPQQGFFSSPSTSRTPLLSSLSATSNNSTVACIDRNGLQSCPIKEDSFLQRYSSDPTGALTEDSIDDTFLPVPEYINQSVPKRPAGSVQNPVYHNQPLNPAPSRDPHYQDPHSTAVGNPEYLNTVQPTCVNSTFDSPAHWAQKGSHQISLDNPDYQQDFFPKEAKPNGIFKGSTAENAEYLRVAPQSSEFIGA
# measurement-protocol: EC50 assay: Ba/F3 stable cell proliferation (CCK-8, 72 h)
# stated-conditions: Ba/F3-EGFR L858R-T790M cells
pEC50: −log10 of the molar value.
measured-parameter: pEC50

INSERT INTO assay_data (molecule, measured_parameter, observed_result) VALUES
  ('C#CC(=O)N[C@H]1C[C@@H](Oc2cc3c(Nc4cccc5ccccc45)ncnc3cc2OC)C1 [Compound 47]', 'pEC50', '≥ 6.70'),
  ('[2H]C([2H])([2H])n1cn/c(=N\c2ccc(Cl)c(Cl)c2F)c2cc3c(cc21)OCC3CNC(=O)C=C (stereo not shown) [Compound 35]', 'pEC50', '< 6.00'),
  ('C=CC(=O)N1CC(c2cc3c(Nc4ccc(Cl)c(Cl)c4F)ncnc3cc2OC2CCOCC2)C1 [Compound 27]', 'pEC50', '6.00 to 6.70'),
  ('C=CC(=O)N1CCC(Oc2cc3c(Nc4ccc5ncsc5c4)ncnc3cc2OC)CC1 [Compound 145]', 'pEC50', '6.00 to 6.70'),
  ('C#CC(=O)N1CCCC(c2ccc3ncnc(Nc4ccc(Cl)c(Cl)c4F)c3c2)C1 (stereo not shown) [Compound 61]', 'pEC50', '≥ 6.70'),
  ('C=CC(=O)N[C@H]1C[C@@H](Oc2cc3c(Nc4ccc(Cl)c(Cl)c4F)ncnc3cc2OCCN(C)C)C1 [Compound 101]', 'pEC50', '< 6.00'),
  ('C=CC(=O)N1CCC=C(c2cc3c(Nc4ccc(Cl)c(Cl)c4F)ncnc3cc2OC)C1 [Compound 186]', 'pEC50', '< 6.00'),
  ('C=CC(=O)N1CCC=C(c2ccc3ncnc(Nc4ccc(Cl)c(Cl)c4F)c3c2)C1 [Compound 187]', 'pEC50', '6.00 to 6.70'),
  ('C=CC(=O)N[C@H]1C[C@@H](Oc2cc3c(Nc4ccc(Cl)c(Cl)c4)ncnc3cc2OC)C1 [Compound 82]', 'pEC50', '6.00 to 6.70'),
  ('C=CC(=O)NC1CC(Oc2cc3c(Nc4ccc5c(c4)CCCC5O)ncnc3cc2OC)C1 (stereo not shown) [Compound 71]', 'pEC50', '< 6.00'),
  ('C=CC(=O)N1CC(c2cc3c(Nc4ccc(Cl)c(Cl)c4F)ncnc3cc2OCC)C1 [Compound 18]', 'pEC50', '≥ 6.70'),
  ('C=CC(=O)N1CCC(Oc2cc3c(Nc4ccc5[nH]ncc5c4)ncnc3cc2OC)CC1 [Compound 150]', 'pEC50', '< 6.00'),
  ('C=CC(=O)N1CCC(Oc2cc3c(NCc4ccc(Cl)cc4)ncnc3cc2OC)CC1 [Compound 108]', 'pEC50', '< 6.00'),
  ('C=CC(=O)N1CCC(Oc2cc3c(NC(CC(=O)O)c4cccc(Cl)c4)ncnc3cc2OC)CC1 (stereo not shown) [Compound 129]', 'pEC50', '< 6.00'),
  ('C=CC(=O)N1CCC(Oc2cc3c(Nc4ccc(C)c5ccccc45)ncnc3cc2OC)CC1 [Compound 167]', 'pEC50', '≥ 6.70'),
  ('[2H]C([2H])([2H])Oc1cc2ncnc(Nc3ccc(Cl)c(Cl)c3F)c2cc1C1CN(C(=O)C=C)C1 [Compound 32]', 'pEC50', '≥ 6.70');
